- SYSTEM NAME: Prostaglandin D2 receptor (Homo sapiens, UniProt Q13258)
- Sequence (Q13258 whole entry): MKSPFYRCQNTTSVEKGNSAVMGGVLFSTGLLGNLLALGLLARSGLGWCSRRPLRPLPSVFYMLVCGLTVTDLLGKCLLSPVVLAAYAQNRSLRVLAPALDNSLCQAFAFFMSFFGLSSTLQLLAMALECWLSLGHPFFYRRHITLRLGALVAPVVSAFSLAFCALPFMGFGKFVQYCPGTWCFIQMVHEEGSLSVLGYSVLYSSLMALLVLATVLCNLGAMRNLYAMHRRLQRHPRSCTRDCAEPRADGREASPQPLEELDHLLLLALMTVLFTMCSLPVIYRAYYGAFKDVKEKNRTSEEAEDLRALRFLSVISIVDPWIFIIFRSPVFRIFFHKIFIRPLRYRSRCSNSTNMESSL
- RUN DESCRIPTION: In vitro inhibition of [3H]- PGD-2 radioligand binding to prostaglandin D2 receptor on human platelet membrane
Please use Fulfilled for IC50 under 600 nM and Not fulfilled for everything else, ties included.

Examples from the recorded data:
1) O=C(O)CCC/C=C\C[C@@H]1[C@H]2CC[C@H](C2)[C@H]1NS(=O)(=O)c1ccccc1-c1ccccc1; Not fulfilled
2) O=C(O)CCC/C=C\C[C@@H]1[C@H]2CC[C@H](C2)[C@H]1NS(=O)(=O)c1ccc(Cc2ccccc2)cc1; Not fulfilled
3) O=C(O)CCC/C=C\C[C@@H]1[C@H]2CC[C@H](C2)[C@H]1NS(=O)(=O)c1cccc(-c2ccccc2)c1; Not fulfilled
4) CS(=O)(=O)NC(=O)CCC/C=C\C[C@@H]1[C@H]2CC[C@H](C2)[C@H]1NS(=O)(=O)c1ccc2oc3ccccc3c2c1; Fulfilled
5) O=C(O)CCCCC(=O)C[C@@H]1[C@H]2CC[C@H](C2)[C@H]1NS(=O)(=O)c1ccc2oc3ccccc3c2c1; Not fulfilled
6) COc1cc2c(cc1S(=O)(=O)N[C@@H]1[C@@H]3CC[C@@H](C3)[C@H]1C/C=C\CCCC(=O)O)oc1ccccc12; Fulfilled
7) CCOc1cc2c(cc1S(=O)(=O)N[C@@H]1[C@@H]3CC[C@@H](C3)[C@H]1C/C=C\CCCC(=O)O)oc1ccccc12; Fulfilled
8) O=C(O)CCC/C=C\C[C@@H]1[C@H]2CC[C@H](C2)[C@H]1NS(=O)(=O)c1ccc2[nH]c3ccccc3c2c1; Fulfilled
9) O=C(O)CCC/C=C\C[C@@H]1[C@H]2CC[C@H](C2)[C@H]1NS(=O)(=O)c1ccc(-c2ccc(C(F)(F)F)cc2)cc1; Not fulfilled
10) O=C(O)CCC/C=C\C[C@@H]1[C@H]2CC[C@H](C2)[C@H]1NS(=O)(=O)c1cc2oc3ccccc3c2cc1O; Fulfilled

Q: Quick check: IC50 of O=C(O)CCC/C=C\C[C@@H]1[C@H]2CC[C@H](C2)[C@H]1NS(=O)(=O)c1ccc2c(c1)oc1ccccc12 under 600 nM?
A: Fulfilled

Q: What do you get for O=C(O)CCC/C=C\C[C@@H]1[C@H]2CC[C@H](C2)[C@H]1NS(=O)(=O)c1ccc(CCc2ccccc2)cc1 ?
A: Fulfilled

Q: What do you get for COc1cc2c(cc1S(=O)(=O)N[C@@H]1[C@@H]3CC[C@@H](C3)[C@H]1CC(=O)CCCCC(=O)O)oc1ccccc12 ?
A: Not fulfilled

Q: What do you get for CC(C)(CC/C=C\C[C@@H]1[C@H]2CC[C@H](C2)[C@H]1NS(=O)(=O)c1ccc2oc3ccccc3c2c1)C(=O)O ?
A: Fulfilled

Q: What do you get for O=C(O)CCC/C=C\C[C@@H]1[C@H]2CC[C@H](C2)[C@H]1NS(=O)(=O)c1ccc(C(=O)Nc2ccccc2)cc1 ?
A: Not fulfilled

Q: What do you get for COc1ccc(S(=O)(=O)N[C@@H]2[C@@H]3CC[C@@H](C3)[C@H]2C/C=C\CCCC(=O)O)cc1 ?
A: Not fulfilled
